pKd values by entry
Target: T1, human c-Met antigen (Sino Biological) (human, UniProt P08581 25-932)
T1 construct: Bought antigen used as the analyte in SPR; also called hepatocyte growth factor receptor; HGFR
T1 sequence (P08581 25-932 limits assumed): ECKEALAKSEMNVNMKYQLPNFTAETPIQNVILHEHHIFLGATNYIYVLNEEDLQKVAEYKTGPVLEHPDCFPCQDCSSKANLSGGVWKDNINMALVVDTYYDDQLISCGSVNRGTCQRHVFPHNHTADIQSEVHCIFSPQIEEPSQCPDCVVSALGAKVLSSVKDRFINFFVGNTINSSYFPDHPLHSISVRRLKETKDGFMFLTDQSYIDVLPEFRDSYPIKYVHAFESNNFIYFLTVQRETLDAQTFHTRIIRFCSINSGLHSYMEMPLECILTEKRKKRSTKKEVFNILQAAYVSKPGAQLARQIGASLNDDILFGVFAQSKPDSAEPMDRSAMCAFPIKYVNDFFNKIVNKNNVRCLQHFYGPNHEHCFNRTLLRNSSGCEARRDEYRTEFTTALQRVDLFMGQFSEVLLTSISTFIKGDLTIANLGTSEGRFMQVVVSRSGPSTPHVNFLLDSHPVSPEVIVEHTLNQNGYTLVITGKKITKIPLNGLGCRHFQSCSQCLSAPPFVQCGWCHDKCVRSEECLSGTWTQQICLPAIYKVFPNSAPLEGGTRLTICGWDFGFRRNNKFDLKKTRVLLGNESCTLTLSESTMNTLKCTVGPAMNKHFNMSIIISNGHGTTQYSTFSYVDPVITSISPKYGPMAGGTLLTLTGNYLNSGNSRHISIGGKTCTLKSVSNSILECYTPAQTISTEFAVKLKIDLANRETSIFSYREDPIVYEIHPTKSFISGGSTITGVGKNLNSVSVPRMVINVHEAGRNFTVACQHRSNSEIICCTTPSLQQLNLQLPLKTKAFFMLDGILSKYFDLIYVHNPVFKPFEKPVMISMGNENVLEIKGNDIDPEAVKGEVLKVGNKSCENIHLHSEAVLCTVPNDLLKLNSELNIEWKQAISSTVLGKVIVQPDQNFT
Test: SPR (BIACORE T200), antibody captured on protein A CM5 chip, human c-Met 0.25 to 2 nM as analyte
Experimental: After combining the above variants, each combination was subjected to measurement of a binding ability (that is, affinity). Then, using BIACORE T200 (serial no. 1909913) device, BIACORE T200 Control Software V2.0.1 and BIACORE T200 Evaluation Software V3.0 (GE Healthcare, Uppsala, Sweden) analysis program, affinity of each candidate antibody to the antigen, c-Met, was determined along with a dissociation constant (KD value). […]
pKd is a log-scale quantity: -log10 of the concentration expressed in molar.

# Binder, pKd
data = [
    ("VH2/Vk2 (antibody, V domains shown) VH: EVQLVQSGAEVKKPGESLKISCKGSGYSFPTHWITWVRQMPGKGLEWMGTIDPTDSYNFYGPSFQGQVTISADKSISTAYLQWSSLKASDTAMYYCARDGNYYDSRGYYYDTFDMWGQGTLVTVSS VL: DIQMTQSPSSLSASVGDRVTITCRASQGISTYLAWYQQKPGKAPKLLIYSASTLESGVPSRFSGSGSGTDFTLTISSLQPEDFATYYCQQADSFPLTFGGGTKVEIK", 9.30),
    ("VH6/Vk0 (antibody, V domains shown, CDR-grafted variant of the IgG1-based anti-cMet antibody 1E4; also called anti-cMet candidate antibody VH6/Vk0) VH: QVQLVQSGAEVKKPGSSVKVSCKASGYSFPTHWITWVRQAPGQGLEWMGTIDPTDSYNFYGPSFQGRVTITADKSTSTAYMELSSLRSEDTAVYYCARDGNYYDSRGYYYDTFDMWGQGTLVTVSS VL: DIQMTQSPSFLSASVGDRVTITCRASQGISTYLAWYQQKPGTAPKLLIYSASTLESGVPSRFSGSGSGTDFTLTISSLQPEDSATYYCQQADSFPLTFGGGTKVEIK", 9.38),
    ("VH0/Vk0 (antibody, V domains shown, Derived from the IgG1-based 1E4 by a K to R change in the CH1 domain (G1m(3) allotype) and an S to T change in the light chain constant region (Km3 allotype); also called VMDO2 VH0/Vk0) VH: QVQLVQSGAEVKKPGESLRISCQGSGYSFPTHWITWVRQMPGKGLEWMGTIDPTDSYNFYGPSFQGHVTISADSSSSTAYLQWSSLKASDTAMYYCARDGNYYDSRGYYYDTFDMWGQGTLVTVSS VL: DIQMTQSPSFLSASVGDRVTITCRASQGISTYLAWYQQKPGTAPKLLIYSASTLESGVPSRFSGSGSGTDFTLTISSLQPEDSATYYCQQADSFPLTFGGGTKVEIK", 9.28),
    ("VH5/Vk2 (antibody, V domains shown, CDR-grafted variant of the IgG1-based anti-cMet antibody 1E4; also called anti-cMet candidate antibody VH5/Vk2) VH: QVQLVQSGAEVKKPGSSVKVSCQGSGYSFPTHWITWVRQAPGQGLEWMGTIDPTDSYNFYGPSFQGRVTITADSSTSTAYMELSSLRSEDTAVYYCARDGNYYDSRGYYYDTFDMWGQGTLVTVSS VL: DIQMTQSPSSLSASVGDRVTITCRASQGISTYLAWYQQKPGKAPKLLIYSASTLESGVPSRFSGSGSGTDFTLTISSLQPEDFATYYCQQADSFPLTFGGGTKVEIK", 9.38),
]

Q: // lookup pKd for VH2/Vk0 (antibody, V domains shown) VH: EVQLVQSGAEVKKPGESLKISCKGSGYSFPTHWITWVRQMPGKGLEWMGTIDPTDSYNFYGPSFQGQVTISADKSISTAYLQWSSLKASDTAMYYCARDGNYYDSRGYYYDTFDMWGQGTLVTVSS VL: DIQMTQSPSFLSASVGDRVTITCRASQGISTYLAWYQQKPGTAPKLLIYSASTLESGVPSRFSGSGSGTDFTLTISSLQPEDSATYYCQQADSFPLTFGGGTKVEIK
Result: 9.27

Q: Reported pKd for VH4/Vk0 (antibody, V domains shown, CDR-grafted variant of the IgG1-based anti-cMet antibody 1E4; also called anti-cMet candidate antibody VH4/Vk0) VH: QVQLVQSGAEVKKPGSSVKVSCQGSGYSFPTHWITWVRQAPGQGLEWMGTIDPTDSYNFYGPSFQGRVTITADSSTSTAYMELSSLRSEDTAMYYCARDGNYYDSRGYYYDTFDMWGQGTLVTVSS VL: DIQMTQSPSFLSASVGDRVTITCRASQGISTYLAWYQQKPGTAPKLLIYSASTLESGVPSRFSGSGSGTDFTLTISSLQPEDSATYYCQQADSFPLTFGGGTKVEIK : what is it?
Result: 9.40

Q: Any idea what its pKd is? The binder is VH6/Vk2 (antibody, V domains shown, CDR-grafted variant of the IgG1-based anti-cMet antibody 1E4; also called anti-cMet candidate antibody VH6/Vk2) VH: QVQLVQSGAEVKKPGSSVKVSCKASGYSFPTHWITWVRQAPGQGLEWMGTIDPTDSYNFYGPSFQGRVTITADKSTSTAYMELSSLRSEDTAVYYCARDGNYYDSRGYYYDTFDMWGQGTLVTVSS VL: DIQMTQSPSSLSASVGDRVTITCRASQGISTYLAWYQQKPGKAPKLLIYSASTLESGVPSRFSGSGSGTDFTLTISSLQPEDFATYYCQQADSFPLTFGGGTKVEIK
Result: 9.36

These data points were gathered from patent US20200271647A1.
